# Test system: HT-1197 cells
# TEST METHOD NOTES: Cell-based assay: anti-proliferative activity, Cell Counting Kit-8, 72 hours (HT-1197, negative control without MELK expression)
# CONDITION NOTES: Homo sapiens, HT1197, 72 h, HT1197 cells (negative control, no MELK expression), 72 hours
MEASUREMENT KIND: IC50 (µM)
Write down the numeric answer in µM and omit the unit.

Past entries and their recorded results:
CN1CCN(c2ncc(-c3c(C(=O)C4CC4)cnc4ccc(-c5cc(Cl)c(O)c(Cl)c5)cc34)cn2)CC1: 7.9
COc1cc(-c2ccc3ncc(C(=O)C4CC4)c(-c4ccc(CN5CCCC5)cc4)c3c2)cc(Cl)c1O: 4.9
CN1CCN(CCc2cccc(Nc3c(C(=O)C4CC4)cnc4ccc(-c5cc(F)c(O)c(Cl)c5)cc34)c2)CC1: 9.5

# evaluate next
-- ask Note down IC50 recorded for CN(C)C[C@H]1CC[C@H](Nc2c(S(C)(=O)=O)cnc3ccc(-c4cc(Cl)c(O)c(Cl)c4)cc23)CC1
-- reply 2.5
